GI50 values, listed per item
- Tested on: K562
- ASSAY_PROCEDURE: NCI tumour cell line growth inhibition, 48 h
Active and inactive are the calls of the source. Rule as the data show it: active = GI50 up to about 1.1 µM and inactive = higher.

The following compounds have reported results that may help.
- CHEMICAL_STRUCTURE: "C=C(C)c1cc(C(C)(C)C)cc(C(=C)C)c1S(C)(=O)=O"
  RESULT: "> 100 µM (inactive)"
- CHEMICAL_STRUCTURE: "C=CCOc1ccc(N)c([N+](=O)[O-])c1"
  RESULT: "> 100 µM (inactive)"

Summary for this compound, "N=C(N)SCCc1ccncc1" : GI50 is > 100 µM (inactive)

Summary for this compound, "CCOC(=O)c1c(N2CCCC2)[nH]c(=O)c(C(c2cccs2)c2c(O)c(C(=O)OCC)c(N3CCCC3)[nH]c2=O)c1O" : GI50 is > 100 µM (inactive)

Summary for this compound, "CC(C)OP(=O)(OC(C)C)c1nc(-c2ccccc2)n(-c2ccc([N+](=O)[O-])cc2)n1" : GI50 is 85.5 µM (inactive)
